target: recombinant human aminopeptidase N (hAPN) (human) (UniProt P15144); test: enzyme inhibition assay (competition with the fluorogenic substrate H-Ala-AMC); 0.1 μM APN, 100 μM H-Ala-AMC, 100 mM Tris pH 7.2, Brij 35 0.0002% w/v, 37 °C, triplicate; inhibition competitive, Ki from the IC50 by the Cheng-Prusoff equation
pIC50: −log10 of the molar value.
property measured: pIC50

Solved cases (2 shown):
{"binder": "SKSGQ", "endpoint result": "< 3.30"}
{"binder": "EHSPW", "endpoint result": 3.94}

Q: Quick one: pIC50 of "AHSTF" ?
Result: < 3.30

Q: And "FYLRE" ?
Result: < 3.30

Q: Can you handle "AHSPW" next?
Result: 5.03

Q: Do the same for "INDFL" please
Result: < 3.30

Q: Here is the next binder: "HSPW"
Result: 4.36

Q: Follow-up entry: "DSTF"
Result: < 3.30

Q: Please give the result for "FSLSK" too.
Result: < 3.30

Q: Next record, please: "RDLVD"
Result: < 3.30

// data source = paper PMC5431086
